Measured PC1 accompanies every entry in the list below.
test: RP-TLC lipophilicity, silica gel C18, methanol-water; type: physicochemical; settings: RP-TLC silica gel C18, first principal component of RM values, contains 86.92% of information

{"Compound": "CCn1cc(C(=O)O)c(=O)c2cc(F)c(N3CC[N+]4(CC3)CN3C(=N4)C(C(=O)O)=Cc4ccccc43)nc21.[Cl-]", "PC1": 0.48}
{"Compound": "CCn1cc(C(=O)O)c(=O)c2cc(F)c(N3CCNCC3)nc21 [Compound 23, enoxacin, reference compound]", "PC1": "−3.86"}
{"Compound": "CC1=CC(C)=C(C(=O)O)C2=N[N+]3(CN12)C(C)CN(c1c(F)c(N)c2c(=O)c(C(=O)O)cn(C4CC4)c2c1F)CC3C.[Cl-] (stereo not drawn)", "PC1": 1.32}

###

assay: RP-TLC lipophilicity, silica gel C18, methanol-water; type: physicochemical; conditions: RP-TLC silica gel C18, C0 = −RM^0/b
Measured Metric: C 0

{"Smi": "O=C(O)C1=Cc2ccccc2N2C[N+]3(CCN(c4cc5c(cc4F)c(=O)c(C(=O)O)cn5C4CC4)CC3)N=C12.[Cl-]", "Endpoint Value": 1.07}
{"Smi": "CCn1cc(C(=O)O)c(=O)c2cnc(N3CC[N+]4(CC3)CN3C(C)=CC(C)=C(C(=O)O)C3=N4)nc21.[Cl-]", "Endpoint Value": 1.22}
{"Smi": "CCn1cc(C(=O)O)c(=O)c2cc(F)c(N3CC[N+]4(CC3)CN3C(C)=CC(C)=C(C(=O)O)C3=N4)nc21.[Cl-]", "Endpoint Value": 1.08}

###

test: RP-TLC lipophilicity, silica gel C18, methanol-water; type: physicochemical; details: RP-TLC silica gel C18, first principal component of RM values, contains 86.92% of information

{"Compound": "CCn1cc(C(=O)O)c(=O)c2cc(F)c(N3CCNCC3)cc21 [Compound 18, reference compound]", "PC1": "−2.34"}
{"Compound": "O=C(O)c1cn(C2CC2)c2cc(N3CCNCC3)c(F)cc2c1=O [Compound 22, ciprofloxacin, reference compound]", "PC1": "−3.88"}
{"Compound": "CCn1cc(C(=O)O)c(=O)c2cc(F)c(N3CC[N+]4(CC3)CN3C(C)=CC(C)=C(C(=O)O)C3=N4)cc21.[Cl-] [Compound 12]", "PC1": 1.97}
{"Compound": "CCn1cc(C(=O)O)c(=O)c2cc(F)c(N3CC[N+]4(CC3)CN3C(C)=CC(C)=C(C(=O)O)C3=N4)nc21.[Cl-] [Compound 11]", "PC1": 1.51}
{"Compound": "C[C@@H]1CN(c2c(F)c(N)c3c(=O)c(C(=O)O)cn(C4CC4)c3c2F)C[C@H](C)N1 [Compound 20, reference compound]", "PC1": "−1.40"}
{"Compound": "COc1c(N2CCNC(C)C2)c(F)cc2c(=O)c(C(=O)O)cn(C3CC3)c12 (stereo not shown) [Compound 21, reference compound]", "PC1": "−1.63"}
{"Compound": "CCn1cc(C(=O)O)c(=O)c2cnc(N3CC[N+]4(CC3)CN3C(=N4)C(C(=O)O)=Cc4ccccc43)nc21.[Cl-] [Compound 6]", "PC1": 0.53}

###

Measured R M ^0 accompanies every entry in the list below.
Test: RP-TLC lipophilicity, silica gel C18, methanol-water
Assay type: physicochemical
Settings: RP-TLC silica gel C18, methanol-water 40 to 70% (v/v), intercept of Soczewiński–Wachtmeister equation
Experimental: The ready-to-use TLC glass plates covered by octadecyl(C18)- and octyl(C8)-modified TLC silica layers were purchased from Merck (Darmstadt, Germany). […] Before analysis, the chromatographic chamber (Twin Trough Chambers from CAMAG Philadelphia, USA) was saturated for 20 min. […] The retention parameter, RM, was calculated for each compound according to the Bate-Smith and Westall formula: (7) RM=log(1/RF−1) and listed in Table S2. […]

{"Compound": "O=C(O)C1=Cc2ccccc2N2C[N+]3(CCN(c4cc5c(cc4F)c(=O)c(C(=O)O)cn5C4CC4)CC3)N=C12.[Cl-] [Compound 8]", "R M ^0": 1.83}
{"Compound": "CC1CN(c2c(F)c(N)c3c(=O)c(C(=O)O)cn(C4CC4)c3c2F)CC(C)[N+]12CN1C(=N2)C(C(=O)O)=Cc2ccccc21.[Cl-] (stereo not shown) [Compound 3]", "R M ^0": 2.75}
{"Compound": "CC1=CC(C)=C(C(=O)O)C2=N[N+]3(CCN(c4cc5c(cc4F)c(=O)c(C(=O)O)cn5C4CC4)CC3)CN12.[Cl-] [Compound 4]", "R M ^0": 1.74}
{"Compound": "O=C(O)c1cn(C2CC2)c2cc(N3CCNCC3)c(F)cc2c1=O [Compound 22, ciprofloxacin, reference compound]", "R M ^0": 2.79}

Sourced from paper PMC6862250
